Reference source for all entries: paper PMC12040169

Assay: in vitro
Conditions: human, hela cells, % viability
Assign viability at 28.5 h, 10 µM to each entry below.
Numbers only, in %.

Report viability at 28.5 h, 10 µM for every entry below.
1. CCC(C)NCc1cccc(Oc2ncccn2)c1 (stereo not shown)
2. COc1ccc(C2CNC(=O)N2C(=O)OC(C)(C)C)cc1OC1CCCC1 (stereo not shown)
3. CC(C)[C@@H](CO)Nc1cncc(-c2ccc3ccccc3c2)n1
4. Cc1ccc(S(=O)(=O)N2CCN(C(=O)CSc3nnc4sc5ccccc5n34)CC2)cc1
5. O=C(NC1CCCOC1)c1cc(-c2cccs2)no1 (stereo not shown)
6. COc1ccc(C2C=C(C)Nc3nc(N)nn32)cc1 (stereo not shown)

1. 106
2. 93.8
3. 100
4. 90.5
5. 82
6. 91.8

Report viability at 28.5 h, 10 µM for every entry below.
1. CN(C)CCCNC(=O)c1ccc(/C=N/O)nc1
2. CC(=O)c1ccc(CN2CCN(S(=O)(=O)c3ccc(C(F)(F)F)cc3Cl)CC2)cc1

[121, 96]

Report viability at 28.5 h, 10 µM for every entry below.
1. CCOc1ccc(Cl)cc1CN(C)C(=O)NC(C)CN1CCOCC1 (stereo not shown)
2. CN(C)S(=O)(=O)N(CC(=O)NCc1ccco1)c1ccccc1

1: 92.4; 2: 97.3
